biological target: Cdk5/p25 (Homo sapiens, UniProt Q00535); assay: Cyclin-Dependent Kinase 5 High Throughput Screening (cdk5-HTS) Assay; type: biochemical; conditions: high throughput screen
measured_quantity: IC50

Please supply IC50 for each of the following items, keeping them in order.
1. CCC(C)n1c(=O)ccc2cnc(Nc3cc(OC)c(OC)c(OC)c3)nc21 (stereo not shown)
2. Cc1cc(Nc2ncc3ccc(=O)n(C(C)C)c3n2)ccc1Br

Result:
1. 0.28 µM
2. 0.44 µM

Please supply IC50 for each of the following items, keeping them in order.
1. O=c1ccc2cnc(Nc3ccc(O)cc3F)nc2n1CC1CC1
2. O=c1ccc2cnc(Nc3cc(F)c(F)c(F)c3)nc2n1CC1CC1

Result:
1: 0.255 µM; 2: 0.26 µM

---

biological target: cdk2/cyclinE (Homo sapiens, UniProt P24941); assay: Cyclin-Dependent Kinase Assay cdk2/cyclinE; conditions: cdk2/E IC50
measured_quantity: pIC50
Give bare numbers, as −log10 of the molar value.

Please supply pIC50 for each of the following items, keeping them in order.
1. CCC(CC)n1c(=O)ccc2cnc(Nc3ccc(C#N)c(NC(C)=O)c3)nc21
2. CCC(CC)n1c(=O)ccc2cnc(Nc3cccc(I)c3)nc21
3. CCC(CC)n1c(=O)ccc2cnc(Nc3cc(Cl)c(O)c(Cl)c3)nc21
4. CCC(CC)n1c(=O)ccc2cnc(Nc3ccc(F)c(C(F)(F)F)c3)nc21
5. CC1Nc2ccc(Nc3ncc4ccc(=O)n(CC5CC5)c4n3)cc2C1C (stereo not drawn)
6. NS(=O)(=O)c1cccc(Nc2ncc3ccc(=O)n(C4CCCC4)c3n2)c1
7. CCCCn1c(=O)ccc2cnc(Nc3ccc(F)c(C)c3)nc21
8. CCCn1c(=O)ccc2cnc(Nc3cc([N+](=O)[O-])ccc3F)nc21

Result:
7.03
7.10
7.10
7.17
6.89
6.96
7.11
6.47

Please supply pIC50 for each of the following items, keeping them in order.
1. CCCn1c(=O)ccc2cnc(Nc3ccc(Br)c(Cl)c3)nc21
2. O=c1ccc2cnc(Nc3ccc(O)c([N+](=O)[O-])c3)nc2n1C1CCCC1
3. CCCn1c(=O)ccc2cnc(Nc3ccc(OC)c(OC)c3)nc21
4. CC(C)n1c(=O)ccc2cnc(Nc3cc(Cl)cc(Cl)c3)nc21

Result:
6.55
7.80
6.02
6.92

---

Assign melting point to each entry below.

{"compound": "CC(C)n1c(=O)ccc2cnc(Nc3ccc(O)cc3)nc21 [Example 112]", "melting point": "226 to 228 °C"}
{"compound": "CN1CCN(c2ccc(Nc3ncc4ccc(=O)n(C5CC6CCC5C6)c4n3)cc2)CC1 (stereo not drawn)", "melting point": "233 to 234 °C"}

We now examine a further compound.
Ask: Please give the measured melting point for this compound: CCn1c(=O)ccc2cnc(Nc3cccc(F)c3OC)nc21
Result: 92 to 93 °C

---

Assign melting point to each entry below.

{"compound": "CC(C)n1c(=O)ccc2cnc(Nc3ccc(OCCN4CCOCC4)cc3)nc21", "melting point": "118 to 119 °C"}
{"compound": "CCn1c(=O)ccc2cnc(Nc3ccc(F)cc3)nc21", "melting point": "215 to 217 °C"}
{"compound": "O=c1ccc2cnc(Nc3ccc(N4CCC(CCCN5CCOCC5)CC4)cc3)nc2n1C1CC2CCC1C2 (centres unmarked) [Example 217]", "melting point": "185 to 186 °C"}

Please supply melting point for each of the following items, keeping them in order.
1. CCn1c(=O)ccc2cnc(Nc3ccc(N4CCN(C)CC4)cc3)nc21
2. CCNc1nc(Nc2ccccc2)ncc1CCC(=O)OCC

Result:
1. 185 to 186 °C
2. 106 to 107 °C
